target: UniProt:A0A0H3GRR0; test: Fluorescence anisotropy binding of BOFP to KpFtsZ; settings: 15 °C; 50 mM Tris-HCl (pH 7.6), 50 mM KCl; 0.1 µM BOFP; read-out: Kd - 15 °C
Sequence (A0A0H3GRR0 entry or part of it): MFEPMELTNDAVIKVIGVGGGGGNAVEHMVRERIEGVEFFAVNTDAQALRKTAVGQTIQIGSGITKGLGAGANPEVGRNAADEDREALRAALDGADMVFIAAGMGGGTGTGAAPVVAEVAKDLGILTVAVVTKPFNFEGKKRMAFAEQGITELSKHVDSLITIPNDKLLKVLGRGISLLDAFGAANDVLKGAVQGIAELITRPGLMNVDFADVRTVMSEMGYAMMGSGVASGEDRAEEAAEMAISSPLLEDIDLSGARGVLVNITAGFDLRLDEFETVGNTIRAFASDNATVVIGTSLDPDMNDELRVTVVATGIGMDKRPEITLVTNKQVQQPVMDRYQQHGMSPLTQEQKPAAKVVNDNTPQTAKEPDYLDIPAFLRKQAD
measurement-type: Kd (nM)
# unit: nM | format: bare number

Given the molecule CC1=CC(C)=[N+]2C1=Cc1ccc(CCC(=O)OCC(Oc3ccc(F)c(C(N)=O)c3F)c3nc(-c4ccc(C(F)(F)F)cc4)c(Br)o3)n1[B-]2(F)F (stereo not shown) , what is its reported Kd?
420

----------
Target: S. aureus (SaFtsZ) (Staphylococcus aureus, UniProt P0A031)
Construct: 6xHis (C); made in house; host or cells: E. coli BLR (DE3), pET-22b(+)
Sequence (P0A031 1-390): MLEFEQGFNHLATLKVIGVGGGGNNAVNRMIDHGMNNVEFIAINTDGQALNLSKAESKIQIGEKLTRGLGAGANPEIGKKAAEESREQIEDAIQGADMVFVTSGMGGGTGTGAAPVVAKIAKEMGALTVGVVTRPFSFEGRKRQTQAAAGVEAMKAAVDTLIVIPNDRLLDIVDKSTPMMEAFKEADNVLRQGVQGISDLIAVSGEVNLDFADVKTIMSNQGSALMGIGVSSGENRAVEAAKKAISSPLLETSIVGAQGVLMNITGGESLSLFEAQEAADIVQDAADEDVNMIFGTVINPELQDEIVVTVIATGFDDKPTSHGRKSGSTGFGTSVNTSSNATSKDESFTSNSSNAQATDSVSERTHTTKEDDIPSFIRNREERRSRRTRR
Test: biochemical
Format: binding
Settings: 37 °C; 50 mM Tris-HCl (pH 7.6), 50 mM KCl; 0.1 µM BOFP; read-out: Kd - 37 °C
measurement-type: Kd (µM)
Write it as a number; the unit µM goes unstated.

Reported Kd for CC1=CC(C)=[N+]2C1=Cc1ccc(CCC(=O)OCC(Oc3ccc(F)c(C(N)=O)c3F)c3nc(-c4ccc(C(F)(F)F)cc4)c(Br)o3)n1[B-]2(F)F (stereo not shown) : what is it?
3.14

----------
molecular target: E. coli (EcFtsZ) (Escherichia coli); test: Fluorescence anisotropy binding of BOFP to EcFtsZ; settings: 15 °C; 50 mM Tris-HCl (pH 7.6), 50 mM KCl; 0.1 µM BOFP; read-out: Kd - 15 °C
Sequence (P0A9A6 whole entry): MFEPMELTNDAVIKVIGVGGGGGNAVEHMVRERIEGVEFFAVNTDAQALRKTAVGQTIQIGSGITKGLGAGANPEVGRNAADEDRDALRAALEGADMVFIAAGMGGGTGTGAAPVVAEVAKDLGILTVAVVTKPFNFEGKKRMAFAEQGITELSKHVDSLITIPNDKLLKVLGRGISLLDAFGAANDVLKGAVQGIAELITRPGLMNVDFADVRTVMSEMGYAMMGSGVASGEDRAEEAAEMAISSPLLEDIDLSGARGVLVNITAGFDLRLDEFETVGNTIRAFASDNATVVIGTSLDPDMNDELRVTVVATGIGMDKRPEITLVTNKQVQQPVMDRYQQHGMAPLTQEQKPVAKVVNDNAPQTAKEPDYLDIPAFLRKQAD
measurement-type: Kd (nM)
Hi! Could you send only the number? It should be in nM, unit omitted.

What value of Kd has been reported for the following compound? CC1=CC(C)=[N+]2C1=Cc1ccc(CCC(=O)OCC(Oc3ccc(F)c(C(N)=O)c3F)c3nc(-c4ccc(C(F)(F)F)cc4)c(Br)o3)n1[B-]2(F)F (stereo not shown)
220

----------
target: E. faecium (EfmFtsZ) (Enterococcus faecium, UniProt Q3Y2I1); assay: Fluorescence anisotropy binding of BOFP to EfmFtsZ; details: 37 °C; 50 mM Tris-HCl (pH 7.6), 50 mM KCl; 0.1 µM BOFP; read-out: Kd - 37 °C
Sequence (Q3Y2I1 1-413): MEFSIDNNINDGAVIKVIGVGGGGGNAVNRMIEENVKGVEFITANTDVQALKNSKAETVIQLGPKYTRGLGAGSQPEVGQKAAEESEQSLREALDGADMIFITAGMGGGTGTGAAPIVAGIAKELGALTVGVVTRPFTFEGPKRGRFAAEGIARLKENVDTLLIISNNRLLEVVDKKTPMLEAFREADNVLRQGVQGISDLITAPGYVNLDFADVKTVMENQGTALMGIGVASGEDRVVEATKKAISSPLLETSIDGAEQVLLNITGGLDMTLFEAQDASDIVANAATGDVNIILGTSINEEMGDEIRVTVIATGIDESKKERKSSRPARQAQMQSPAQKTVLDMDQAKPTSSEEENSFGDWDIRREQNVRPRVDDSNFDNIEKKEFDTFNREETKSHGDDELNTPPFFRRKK
measurement-type: Kd (µM)
Numbers only; they are read as µM.

Record request: Kd value, item CC1=CC(C)=[N+]2C1=Cc1ccc(CCC(=O)OCC(Oc3ccc(F)c(C(N)=O)c3F)c3nc(-c4ccc(C(F)(F)F)cc4)c(Br)o3)n1[B-]2(F)F (stereo not shown)
3.14

----------
Biological target: A. baumannii (AbFtsZ) (Acinetobacter baumannii, UniProt V5V8B6)
Sequence (V5V8B6 1-391): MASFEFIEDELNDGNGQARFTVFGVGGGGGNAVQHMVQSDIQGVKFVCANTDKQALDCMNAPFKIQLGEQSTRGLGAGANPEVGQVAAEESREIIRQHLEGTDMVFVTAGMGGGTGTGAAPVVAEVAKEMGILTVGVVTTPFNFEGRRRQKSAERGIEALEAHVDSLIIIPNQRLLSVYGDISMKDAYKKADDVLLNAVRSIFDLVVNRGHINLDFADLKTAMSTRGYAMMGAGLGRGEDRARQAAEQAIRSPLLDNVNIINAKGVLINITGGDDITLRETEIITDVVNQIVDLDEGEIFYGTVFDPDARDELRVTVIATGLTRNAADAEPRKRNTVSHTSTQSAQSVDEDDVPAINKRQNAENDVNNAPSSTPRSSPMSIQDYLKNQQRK
Assay: Fluorescence anisotropy binding of BOFP to AbFtsZ
Conditions: 25 °C; 50 mM Tris-HCl (pH 7.6), 50 mM KCl; 0.1 µM BOFP; read-out: Kd - 25 °C
measurement-type: pKd
Note on units: pKd is unitless, being -log10 of a concentration expressed in mol/L.

What measured pKd goes with CC1=CC(C)=[N+]2C1=Cc1ccc(CCC(=O)OCC(Oc3ccc(F)c(C(N)=O)c3F)c3nc(-c4ccc(C(F)(F)F)cc4)c(Br)o3)n1[B-]2(F)F (stereo not shown) [BOFP] ?
6.26

----------
Molecular target: S. pneumoniae (SpnFtsZ) (Streptococcus pneumoniae, UniProt A0A0H2ZNE0)
Sequence (A0A0H2ZNE0 1-419): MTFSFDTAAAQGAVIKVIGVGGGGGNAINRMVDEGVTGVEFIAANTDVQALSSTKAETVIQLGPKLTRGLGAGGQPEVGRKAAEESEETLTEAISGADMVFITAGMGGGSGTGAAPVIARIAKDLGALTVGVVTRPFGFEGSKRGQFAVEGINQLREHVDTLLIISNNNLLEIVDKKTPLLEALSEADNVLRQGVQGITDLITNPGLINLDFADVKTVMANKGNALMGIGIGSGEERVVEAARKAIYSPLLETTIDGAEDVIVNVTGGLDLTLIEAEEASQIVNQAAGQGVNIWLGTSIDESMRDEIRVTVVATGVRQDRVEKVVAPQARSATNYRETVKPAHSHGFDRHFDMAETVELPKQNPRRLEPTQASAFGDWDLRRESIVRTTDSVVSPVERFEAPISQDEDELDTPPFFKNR
Assay: Fluorescence anisotropy binding of BOFP to SpnFtsZ
Settings: 25 °C; 50 mM Tris-HCl (pH 7.6), 50 mM KCl; 0.1 µM BOFP; read-out: Kd - 25 °C
measurement-type: Kd (µM)
Your answer should be a plain number; it is taken to be in µM.

Fill blank: measured Kd of the compound CC1=CC(C)=[N+]2C1=Cc1ccc(CCC(=O)OCC(Oc3ccc(F)c(C(N)=O)c3F)c3nc(-c4ccc(C(F)(F)F)cc4)c(Br)o3)n1[B-]2(F)F (stereo not shown) [BOFP] is ____.
3.49

All figures here come from paper PMC6934700.
